- System name: S1P1/EDG1 (Homo sapiens)
- Sequence (P21453 whole entry): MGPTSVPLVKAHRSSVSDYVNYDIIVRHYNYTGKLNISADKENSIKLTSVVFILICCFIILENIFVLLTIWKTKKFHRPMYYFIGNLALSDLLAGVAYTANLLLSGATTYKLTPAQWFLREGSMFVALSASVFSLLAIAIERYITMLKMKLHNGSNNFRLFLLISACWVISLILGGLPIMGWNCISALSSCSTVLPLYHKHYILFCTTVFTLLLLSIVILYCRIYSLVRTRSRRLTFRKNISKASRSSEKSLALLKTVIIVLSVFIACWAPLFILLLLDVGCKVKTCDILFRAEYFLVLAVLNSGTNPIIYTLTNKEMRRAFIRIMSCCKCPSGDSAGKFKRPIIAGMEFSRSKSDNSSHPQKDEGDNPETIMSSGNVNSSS
- Experiment notes: S1P1 CRE-bla CHOK1 reporter assay, inhibition of Forskolin induced cAMP
- Format: cell-based
- Test settings: agonist activity range; S1P1 CRE-bla CHOK1 cells, 2 μM Forskolin; read-out: S1P1 ACTIVITY
Structures can show the parent of a compound that is named as a salt.
Readout name: EC50

Answer with the recorded EC50 for the compound listed here: CC(C)Oc1ccc(-c2nnc(-c3cccc4c3CCC[C@@H]4NS(=O)(=O)C3CC3)s2)cc1C#N
0.05 to 0.5 nM

Look up and state reported EC50 for CC(C)Oc1ccc(-c2nnc(-c3cccc4c3CC[C@H]4NS(C)(=O)=O)s2)cc1C#N
0.05 to 0.5 nM

Give the reported value of EC50 for this record: CC(C)Oc1ccc(-c2nc(-c3cccc4c3CC[C@@H]4NS(=O)(=O)CCO)ns2)cc1C#N
0.5 to 5 nM

Provide only the value of recorded EC50 for CC(C)Oc1ccc(-c2nnc(-c3cccc4c3CCC[C@@H]4NC(=O)CCN(C)C)s2)cc1C#N
0.5 to 5 nM

Give the measured EC50 for CC(C)Oc1ccc(-c2nnc(-c3cccc4c3CCC[C@@H]4NC(=O)CO)s2)cc1C#N
0.05 to 0.5 nM

Specify reported EC50 for the compound shown: CC(C)Oc1ccc(-c2ncc(-c3cccc4c3CC[C@H]4NS(C)(=O)=O)s2)cc1C#N
0.05 to 0.5 nM

Give me measured EC50, please, for this compound: CC(=O)N[C@@H]1CCc2c(-c3cnc(-c4ccc(OC(C)C)c(C#N)c4)s3)cccc21
0.05 to 0.5 nM

Identify measured EC50 associated with CC(C)Oc1ccc(-c2ncc(-c3cccc4c3CC[C@H]4NS(=O)(=O)Cc3ccccc3)s2)cc1C#N
0.5 to 5 nM

Item CC(C)Oc1ccc(-c2nnc(-c3cccc4c3CCC[C@@H]4NCc3ncc[nH]3)s2)cc1C#N : provide EC50
0.05 to 0.5 nM

Indicate its recorded EC50; the compound in question is CC(C)Oc1ccc(-c2nnc(-c3cccc4c3CC[C@H]4O)s2)cc1C#N
0.05 to 0.5 nM

Using the record for CC(=O)N[C@H]1CCCc2c(-c3nnc(-c4ccc(OC(C)C)c(C#N)c4)s3)cccc21 , state its measured EC50.
0.5 to 5 nM

Return reported EC50. Input compound: CC(C)Oc1ccc(-c2nnc(-c3cccc4c3CCC[C@@H]4NCCO)s2)cc1C#N
0.05 to 0.5 nM

Name the recorded EC50 of the item CC(C)Oc1ccc(-c2ncc(-c3cccc4c3CC[C@H]4NS(=O)(=O)CCN3CCOCC3)s2)cc1C#N in your answer.
0.5 to 5 nM

Please look at this compound and report its EC50: CC(C)Oc1ccc(-c2nnc(-c3cccc4c3CC[C@H]4NC(=O)CN(C)C)s2)cc1C#N
0.5 to 5 nM

Kindly indicate its recorded EC50. Item: CC(C)Oc1ccc(-c2ncc(-c3cccc4c3CC[C@H]4NC(=O)N3CC(O)C3)s2)cc1C#N
0.05 to 0.5 nM

Give me measured EC50, please, for this compound: CC(C)Oc1ccc(-c2nnc(-c3cccc4c3CC[C@H]4NCCO)s2)cc1C#N
0.05 to 0.5 nM

Report EC50 for CC(C)Oc1ccc(-c2ncc(-c3cccc4c3CC[C@H]4NC(=O)N3CCN(C)CC3)s2)cc1C#N
0.5 to 5 nM

Identify measured EC50 corresponding to CC(C)Oc1ccc(-c2ncc(-c3cccc4c3CC[C@H]4NC(=O)CO)s2)cc1C#N
0.05 to 0.5 nM

Answer with reported EC50 of CC(C)Oc1ccc(-c2nnc(-c3cccc4c3CCC[C@H]4NC(=O)[C@@H](N)CO)s2)cc1C#N
0.05 to 0.5 nM

Identify measured EC50 corresponding to CC(C)Oc1ccc(-c2ncc(-c3cccc4c3CC[C@H]4NC(=O)N3CCC[C@H](O)C3)s2)cc1C#N [Compound 197]
0.5 to 5 nM

Find the measured EC50 of CC(C)Oc1ccc(-c2ncc(-c3cccc4c3CC[C@H]4NC(=O)N3CCC(N(C)C)CC3)s2)cc1C#N and report it.
> 5 nM

For the compound CC(C)Oc1ccc(-c2nnc(-c3cccc4c3CCC[C@@H]4N)s2)cc1C#N [Compound 229, hydrochloride] , give its reported EC50.
0.5 to 5 nM

Output EC50 of CC(C)Oc1ccc(-c2nnc(-c3cccc4c3CC[C@H]4NCCS(C)(=O)=O)s2)cc1C#N
< 0.05 nM

Please look at this compound and report its EC50: COCCN[C@@H]1CCc2c(-c3nnc(-c4ccc(OC(C)C)c(C#N)c4)s3)cccc21
0.5 to 5 nM

# return recorded EC50 for input CCS(=O)(=O)N[C@@H]1CCc2c(-c3cnc(-c4ccc(OC(C)C)c(C#N)c4)s3)cccc21
0.05 to 0.5 nM

For the compound CNC(=O)CN[C@H]1CCCc2c(-c3nnc(-c4ccc(OC(C)C)c(C#N)c4)s3)cccc21 , give its measured EC50 value.
0.05 to 0.5 nM

Determine its reported EC50: CC(C)Oc1ccc(-c2ncc(-c3cccc4c3CC[C@H]4NS(=O)(=O)CC(=O)O)s2)cc1C#N
< 0.05 nM

Let me know recorded EC50 for COC(=O)N[C@H]1CCCc2c(-c3nnc(-c4ccc(OC(C)C)c(C#N)c4)s3)cccc21 , thanks.
0.05 to 0.5 nM

Please give the documented EC50 of CC(C)Oc1ccc(-c2nnc(-c3cccc4c3CCC[C@@H]4NC(=O)CN(C)C)s2)cc1C#N
0.5 to 5 nM

Find the measured EC50 of COC(=O)N[C@@H]1CCCc2c(-c3nnc(-c4ccc(OC(C)C)c(C#N)c4)s3)cccc21 and report it.
0.5 to 5 nM
